tested on: horse red cells (defibrinated horse blood); assay: Haemolysis assay; assay type: cell-based; conditions: 2% (v/v) horse red cell suspension mixed 1:1 with peptide in PBS, 37 ℃ 2 h, absorbance 570 nm, 0.1% Triton X-100 positive control; nine replicates from three independent tests
Where a SMILES comes first, the peptide text is derived from it.
REPORTED ENDPOINT: HC50

COMPOUND | REPORTED ENDPOINT | MEASURED RESULT
CC[C@H](C)[C@H](NC(=O)[C@@H](NC(=O)CN)C(C)C)C(=O)N[C@H](C(=O)N[C@@H](CCCCN)C(=O)N[C@H](C(=O)N[C@@H](CC(C)C)C(=O)N[C@@H](CCCCN)C(=O)NCC(=O)N[C@@H](C)C(=O)N[C@@H](C)C(=O)N[C@@H](CCCCN)C(=O)N[C@H](C(=O)N[C@H](C(=O)N[C@@H](C)C(=O)N[C@@H](C)C(=O)N[C@@H](CCCCN)C(=O)N[C@@H](CC(C)C)C(=O)N[C@@H](CC(C)C)C(N)=O)C(C)C)[C@@H](C)O)[C@@H](C)O)[C@@H](C)CC [tB2U-K] (H-GVIIKTLKGAAKTVAAKLL-NH2) | HC50 | 3056 µM

---

tested on: MRSA (NCTC 12493); format: cell-based, Methicillin-resistant Staphylococcus aureus
Where a SMILES comes first, the peptide text is derived from it.
List of MBC values.

MOLECULE | MBC
CC[C@H](C)[C@H](NC(=O)[C@@H](NC(=O)CN)C(C)C)C(=O)N[C@H](C(=O)N[C@@H](CCCCN)C(=O)N[C@@H](CCCCN)C(=O)N[C@@H](CC(C)C)C(=O)N[C@@H](CCCCN)C(=O)NCC(=O)N[C@@H](C)C(=O)N[C@@H](C)C(=O)N[C@@H](CCCCN)C(=O)N[C@@H](CCCCN)C(=O)N[C@H](C(=O)N[C@@H](C)C(=O)N[C@@H](C)C(=O)N[C@@H](CCCCN)C(=O)N[C@@H](CC(C)C)C(=O)N[C@@H](CC(C)C)C(N)=O)C(C)C)[C@@H](C)CC [tB2U-6K] (H-GVIIKKLKGAAKKVAAKLL-NH2) | 128 µM
CC[C@H](C)[C@H](NC(=O)[C@@H](NC(=O)CN)C(C)C)C(=O)N[C@H](C(=O)N[C@@H](CC(=O)O)C(=O)N[C@H](C(=O)N[C@@H](CC(C)C)C(=O)N[C@@H](CCCCN)C(=O)NCC(=O)N[C@@H](C)C(=O)N[C@@H](C)C(=O)N[C@@H](CCCCN)C(=O)N[C@H](C(=O)N[C@H](C(=O)N[C@@H](C)C(=O)N[C@@H](C)C(=O)N[C@@H](CCC(=O)O)C(=O)N[C@@H](CC(C)C)C(=O)N[C@@H](CC(C)C)C(N)=O)C(C)C)[C@@H](C)O)[C@@H](C)O)[C@@H](C)CC [tB2U-α] (H-GVIIDTLKGAAKTVAAELL-NH2) | >512 µM

---

tested on: P. aeruginosa (B004 V2S2 B); type: cell-based, Pseudomonas aeruginosa
Where a SMILES comes first, the peptide text is derived from it.

MOLECULE | MIC
CC[C@H](C)[C@H](NC(=O)[C@@H](NC(=O)CN)C(C)C)C(=O)N[C@H](C(=O)N[C@@H](CCCCN)C(=O)N[C@H](C(=O)N[C@@H](CC(C)C)C(N)=O)[C@@H](C)O)[C@@H](C)CC [Peptide 7-tB2U-K] (H-GVIIKTL-NH2) | >512 µM
CC[C@H](C)[C@H](NC(=O)[C@@H](NC(=O)CN)C(C)C)C(=O)N[C@H](C(=O)N[C@@H](CC(=O)O)C(=O)N[C@H](C(=O)N[C@@H](CC(C)C)C(=O)N[C@@H](CCCCN)C(=O)NCC(=O)N[C@@H](C)C(=O)N[C@@H](C)C(=O)N[C@@H](CCCCN)C(=O)N[C@H](C(=O)N[C@H](C(=O)N[C@@H](C)C(=O)N[C@@H](C)C(=O)N[C@@H](CCC(=O)O)C(=O)N[C@@H](CC(C)C)C(=O)N[C@@H](CC(C)C)C(N)=O)C(C)C)[C@@H](C)O)[C@@H](C)O)[C@@H](C)CC [tB2U-α] (H-GVIIDTLKGAAKTVAAELL-NH2) | >512 µM
CC[C@H](C)[C@H](NC(=O)[C@@H](NC(=O)CN)C(C)C)C(=O)N[C@H](C(=O)N[C@@H](CCCCN)C(=O)N[C@@H](CCCCN)C(=O)N[C@@H](CC(C)C)C(=O)N[C@@H](CCCCN)C(=O)NCC(=O)N[C@@H](C)C(=O)N[C@@H](C)C(=O)N[C@@H](CCCCN)C(=O)N[C@@H](CCCCN)C(=O)N[C@H](C(=O)N[C@@H](C)C(=O)N[C@@H](C)C(=O)N[C@@H](CCCCN)C(=O)N[C@@H](CC(C)C)C(=O)N[C@@H](CC(C)C)C(N)=O)C(C)C)[C@@H](C)CC [tB2U-6K] (H-GVIIKKLKGAAKKVAAKLL-NH2) | 64 µM
CC[C@H](C)[C@H](NC(=O)[C@@H](NC(=O)CN)C(C)C)C(=O)N[C@H](C(=O)N[C@@H](CCCCN)C(=O)N[C@H](C(=O)N[C@@H](CC(C)C)C(=O)N[C@@H](CCCCN)C(=O)NCC(=O)N[C@@H](C)C(=O)N[C@@H](C)C(=O)N[C@@H](CCCCN)C(=O)N[C@H](C(=O)N[C@H](C(N)=O)C(C)C)[C@@H](C)O)[C@@H](C)O)[C@@H](C)CC [Peptide 14-tB2U-K] (H-GVIIKTLKGAAKTV-NH2) | >512 µM
CC[C@H](C)[C@H](NC(=O)[C@@H](NC(=O)CN)C(C)C)C(=O)N[C@H](C(=O)N[C@@H](CCCCN)C(=O)N[C@H](C(=O)N[C@@H](CC(C)C)C(=O)N[C@@H](CCCCN)C(=O)NCC(=O)N[C@@H](C)C(=O)N[C@@H](C)C(=O)N[C@@H](CCCCN)C(=O)N[C@H](C(=O)N[C@H](C(=O)N[C@@H](C)C(=O)N[C@@H](C)C(=O)N[C@@H](CCCCN)C(=O)N[C@@H](CC(C)C)C(=O)N[C@@H](CC(C)C)C(N)=O)C(C)C)[C@@H](C)O)[C@@H](C)O)[C@@H](C)CC [tB2U-K] (H-GVIIKTLKGAAKTVAAKLL-NH2) | >512 µM
